Data origin, for the record: the supplement of paper PMC12042874

- ASSAY: amyloid nucleation score (Sup35N fusion, yeast selection) (log enrichment); library NNK3; higher = more nucleation; inactive = no reads after selection;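 also: zero at mode of non-aggregating sequences after 7 days selection at 30°C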
RECORDED METRIC: amyloid nucleation score

>  <INPUT SEQUENCE>
ICLVEISDGAFRKR

>  <RECORDED VALUE>
inactive

$$$$
>  <INPUT SEQUENCE>
NGYTNASS

>  <RECORDED VALUE>
inactive

$$$$
>  <INPUT SEQUENCE>
NFSVTYEFFGQSI

>  <RECORDED VALUE>
0.292

$$$$
>  <INPUT SEQUENCE>
RSKNWAVIMIGR

>  <RECORDED VALUE>
inactive

$$$$

====

- ASSAY: amyloid nucleation score (Sup35N fusion, yeast selection) (log enrichment); library NNK2; higher = more nucleation; inactive = no reads after selection
Each entry below carries its reported amyloid nucleation score.
RECORDED METRIC: amyloid nucleation score

>  <SUBSTANCE>
NNSGSNKSD

>  <RECORDED METRIC>
amyloid nucleation score

>  <RECORDED VALUE>
-0.509

$$$$
>  <SUBSTANCE>
NRWYKLRLYICYDLRIAVFN

>  <RECORDED METRIC>
amyloid nucleation score

>  <RECORDED VALUE>
-1.58

$$$$
>  <SUBSTANCE>
SLFYPLFLMLGVAYEGSFSW

>  <RECORDED METRIC>
amyloid nucleation score

>  <RECORDED VALUE>
-1.1

$$$$
>  <SUBSTANCE>
YNFGEFACYHH

>  <RECORDED METRIC>
amyloid nucleation score

>  <RECORDED VALUE>
3.81

$$$$
>  <SUBSTANCE>
RSQIPNYYWQYMLVYSYLQG

>  <RECORDED METRIC>
amyloid nucleation score

>  <RECORDED VALUE>
0.201

$$$$
>  <SUBSTANCE>
TSKFSLRVFDLFSIYGYGHT

>  <RECORDED METRIC>
amyloid nucleation score

>  <RECORDED VALUE>
-0.125

$$$$
>  <SUBSTANCE>
VVENRALLYGGFVR

>  <RECORDED METRIC>
amyloid nucleation score

>  <RECORDED VALUE>
0.135

$$$$
>  <SUBSTANCE>
DSTPLGYSVLLSWTLVQRNL

>  <RECORDED METRIC>
amyloid nucleation score

>  <RECORDED VALUE>
1.38

$$$$
>  <SUBSTANCE>
VVTKQMSRFS

>  <RECORDED METRIC>
amyloid nucleation score

>  <RECORDED VALUE>
0.701

$$$$
>  <SUBSTANCE>
FCRDLVSGLIMTMPLCTDEM

>  <RECORDED METRIC>
amyloid nucleation score

>  <RECORDED VALUE>
0.079

$$$$
>  <SUBSTANCE>
NSGYIGLGLSF

>  <RECORDED METRIC>
amyloid nucleation score

>  <RECORDED VALUE>
-0.224

$$$$
>  <SUBSTANCE>
DINKFVAVWCHYLSGKGLLP

>  <RECORDED METRIC>
amyloid nucleation score

>  <RECORDED VALUE>
-0.359

$$$$
>  <SUBSTANCE>
TQWSFGGYQRVGGLVVHAKR

>  <RECORDED METRIC>
amyloid nucleation score

>  <RECORDED VALUE>
3.03

$$$$
>  <SUBSTANCE>
GYMRSLGHYSADVMEYLYNW

>  <RECORDED METRIC>
amyloid nucleation score

>  <RECORDED VALUE>
0.052

$$$$
>  <SUBSTANCE>
DCRVGSLSAGRQLSARAAGK

>  <RECORDED METRIC>
amyloid nucleation score

>  <RECORDED VALUE>
0.633

$$$$
>  <SUBSTANCE>
LVDILLMMYWMWQ

>  <RECORDED METRIC>
amyloid nucleation score

>  <RECORDED VALUE>
0.373

$$$$
>  <SUBSTANCE>
YNSSCCSERSYLLSVFRISR

>  <RECORDED METRIC>
amyloid nucleation score

>  <RECORDED VALUE>
0.178

$$$$
>  <SUBSTANCE>
CDSVLPRLLNYKYTKNK

>  <RECORDED METRIC>
amyloid nucleation score

>  <RECORDED VALUE>
0.14

$$$$
>  <SUBSTANCE>
RLYKSARVASHVDLGCTFRC

>  <RECORDED METRIC>
amyloid nucleation score

>  <RECORDED VALUE>
1.35

$$$$
>  <SUBSTANCE>
QKFVLSRPDLDRFYCSMDCM

>  <RECORDED METRIC>
amyloid nucleation score

>  <RECORDED VALUE>
-0.185

$$$$
>  <SUBSTANCE>
HCVIQSSYLRD

>  <RECORDED METRIC>
amyloid nucleation score

>  <RECORDED VALUE>
-0.337

$$$$
>  <SUBSTANCE>
TEPSGTGKTRGSQRTLHRYV

>  <RECORDED METRIC>
amyloid nucleation score

>  <RECORDED VALUE>
-0.323

$$$$
>  <SUBSTANCE>
VGVWATGRGCSISEYNGKNR

>  <RECORDED METRIC>
amyloid nucleation score

>  <RECORDED VALUE>
1.09

$$$$
>  <SUBSTANCE>
ANVENVAYSDTISRSDSDVT

>  <RECORDED METRIC>
amyloid nucleation score

>  <RECORDED VALUE>
0.805

$$$$
>  <SUBSTANCE>
GRCILGCHPATRTGMLRYFE

>  <RECORDED METRIC>
amyloid nucleation score

>  <RECORDED VALUE>
-0.087

$$$$
>  <SUBSTANCE>
FSSIDWLCRRCSQGNRAGID

>  <RECORDED METRIC>
amyloid nucleation score

>  <RECORDED VALUE>
0.371

$$$$
>  <SUBSTANCE>
HIARCNNWNACLMSRRHNCW

>  <RECORDED METRIC>
amyloid nucleation score

>  <RECORDED VALUE>
3.6

$$$$
>  <SUBSTANCE>
VNAFLSLKSKACHWACGNDD

>  <RECORDED METRIC>
amyloid nucleation score

>  <RECORDED VALUE>
3.67

$$$$
>  <SUBSTANCE>
ESYTIDCRVFGLRGKGSTRA

>  <RECORDED METRIC>
amyloid nucleation score

>  <RECORDED VALUE>
0.695

$$$$
>  <SUBSTANCE>
RTRCYCVYFRLLVHFA

>  <RECORDED METRIC>
amyloid nucleation score

>  <RECORDED VALUE>
0.057

$$$$
>  <SUBSTANCE>
PAITFSSYQSIANYWRGPRM

>  <RECORDED METRIC>
amyloid nucleation score

>  <RECORDED VALUE>
7.9

$$$$
>  <SUBSTANCE>
FFSVHEDRREKYLSNNV

>  <RECORDED METRIC>
amyloid nucleation score

>  <RECORDED VALUE>
-2.15

$$$$
>  <SUBSTANCE>
QNDLIWSSW

>  <RECORDED METRIC>
amyloid nucleation score

>  <RECORDED VALUE>
-1.32

$$$$
>  <SUBSTANCE>
LFFSCHRVDCHSALNMFIVS

>  <RECORDED METRIC>
amyloid nucleation score

>  <RECORDED VALUE>
5.53

$$$$
>  <SUBSTANCE>
MLDVVARNH

>  <RECORDED METRIC>
amyloid nucleation score

>  <RECORDED VALUE>
1.52

$$$$
>  <SUBSTANCE>
FVMNGPLWMTLANMSMNHNL

>  <RECORDED METRIC>
amyloid nucleation score

>  <RECORDED VALUE>
4.21

$$$$
>  <SUBSTANCE>
YVGHRTMMKFTIIVIYYMYP

>  <RECORDED METRIC>
amyloid nucleation score

>  <RECORDED VALUE>
-1.5

$$$$
>  <SUBSTANCE>
ANSAYCIGLCLGNCFMSYFC

>  <RECORDED METRIC>
amyloid nucleation score

>  <RECORDED VALUE>
7.45

$$$$
>  <SUBSTANCE>
SSGFQNSSTNGTDAQS

>  <RECORDED METRIC>
amyloid nucleation score

>  <RECORDED VALUE>
0.101

$$$$
>  <SUBSTANCE>
LCSYANKDFKVHRSHDFVRV

>  <RECORDED METRIC>
amyloid nucleation score

>  <RECORDED VALUE>
0.369

$$$$
